# Target Desc: T1, HIV-1 Tat 25-mer peptide (tat25) (Human immunodeficiency virus 1, UniProt P69698 SEQ:1-25)
# T1 chain: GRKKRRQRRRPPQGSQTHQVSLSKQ
# Assay Comment: EMSA; 1:1 KD
# Condition Details: protein: synthetic, tags: peptide fragment, label: 32P, hairpin
In this section, each of the binders is paired with its reported pKd.
Reminder that pKd is minus the log10 of a molar concentration.

[[record]]
binder = "GCCAGAUCUGAGCCUGGGAGCUCUCUGGC (ssRNA, 6-aza-U (6-AzaUd in Table 4) at TAR position 23) [6-AzaU23 deltaTAR29 #3257]"
numeric_result = 7.85


We next turn to a different binder, shown below.
Problem: Using known records, supply pKd for GCCAGAUCUGAGCCUGGGAGCUCUCUGGC (ssRNA, 5-FdU at TAR position 23) [5-FdU23 deltaTAR29 #3168]
Solution: 8.00
